Test system: Hepatitis C virus NS3 helicase
METHOD_DESCRIPTION: blockers of NS3h binding to ssDNA – biochemical, fluorescence polarization, LOPAC1280 library, primary screen (AID 687035)
MEASUREMENT_PARAMETERS: Purified HCV NS3 helicase, Cy5-dT15 ssDNA binding fluorescence polarization; stronger effect = higher value; concentration not given here
METRIC_NAME: inhibition (%)

INSERT INTO measurements (compound, scale_unit, recorded_value) VALUES
  ('NCCC1CCCC(CCN)N1 (centres undefined)', '%', -7),
  ('NC[C@@H]1O[C@H](c2ccccc2)Cc2c1ccc(O)c2O', '%', -3),
  ('S=C(Nc1ccccc1)Nc1nccs1', '%', -3),
  ('CNCCNS(=O)(=O)c1cccc2cnccc12', '%', -6);

---

METHOD_DESCRIPTION: viability loss with induced miR-34 in A549 – imaging, A549 dox-inducible miR-34, nuclei and caspase counts, primary screen (AID 1347080)
MEASUREMENT_PARAMETERS: A549 miR-34 inducible, Hoechst nuclei count, 48 h; measured here: total cells with miR-34 induction; stronger effect = lower value
Values of cell count strictly less than 8000 map to y, and values of at least 8000 map to n.

INSERT INTO measurements (compound, category_label) VALUES
  ('CCCC1CC(C(=O)NC(C(C)O)[C@@H]2OC(SC)C(O)C(O)C2O)N(C)C1 (some centres not stated)', 'n'),
  ('O=C(O)CCc1c[nH]c2ccccc12', 'n'),
  ('C[C@H]1CC2C3CCC4=CC(=O)C=C[C@]4(C)[C@@]3(Cl)[C@@H](O)C[C@]2(C)[C@@]1(O)C(=O)CO (some centres not stated)', 'y'),
  ('O=C(O)CN(CCO)CCO', 'n'),
  ('Cc1cc(Nc2nc(NC(C)c3ncc(F)cn3)ncc2Cl)n[nH]1 (configuration not stated)', 'y'),
  ('c1ccc2c(CCc3ccncc3)c[nH]c2c1', 'y'),
  ('NCCC1CCCC(CCN)N1 (configuration not stated)', 'n'),
  ('CC(=O)C1CCC2C3CCC4=CC(=O)CC[C@]4(C)C3CC[C@]12C (some centres not stated)', 'y'),
  ('COc1ccccc1CNCCCCCCNCCCCCCCCNCCCCCCNCc1ccccc1OC', 'n'),
  ('CC1(C)S[C@H]2C(NC(=O)C(NC(=O)N3CCN(S(C)(=O)=O)C3=O)c3ccccc3)C(=O)N2C1C(=O)O (some centres not stated)', 'y'),
  ('C[C@](Cc1ccc(O)c(O)c1)(NN)C(=O)O', 'n'),
  ('C=C1C(=CC=C2CCC[C@]3(C)C(C(C)CCCC(C)(C)O)CC[C@@H]23)CC(O)CC1O (some centres not stated)', 'y'),
  ('NC(N)=NCCNS(=O)(=O)c1cccc2cnccc12', 'y'),
  ('CC(=O)N[C@@H](Cc1c[nH]c2ccccc12)C(=O)OCc1cc(C(F)(F)F)cc(C(F)(F)F)c1', 'n'),
  ('NC(=O)NN=Cc1ccc([N+](=O)[O-])o1', 'y'),
  ('OC(CNCC(O)C1CCc2cc(F)ccc2O1)C1CCc2cc(F)ccc2O1 (configuration not stated)', 'y'),
  ('Cc1nsc(NC(=O)NC2CCc3ccccc3C2)n1 (configuration not stated)', 'y'),
  ('NC(=O)NC(CCC(=O)O)C(=O)O (configuration not stated)', 'n'),
  ('Cc1ccc2c(-c3ncnc4scc(C)c34)cccc2n1', 'y'),
  ('C=CS(=O)(=O)NC1CCN(C(=O)CNc2cc(I)c(Cl)cc2OC)CC1', 'y'),
  ('CCn1cnc(NC(=O)N(C)Cc2ccc(OC)cc2)n1', 'n'),
  ('O=c1cc(-c2ccccc2)oc2ccccc12', 'y'),
  ('OCCN1CCN(CC/C=C2/c3ccccc3Sc3ccc(Cl)cc32)CC1', 'y'),
  ('O=C1C(Cc2ccc(O)cc2)N2C(=O)CCN(C(=O)NCc3ccccc3)[C@H]2CN1Cc1cccc2ccccc12 (some centres not stated)', 'y'),
  ('OCC1OC(Oc2ccc(O)cc2)C(O)C(O)C1O (configuration not stated)', 'y');

---

METHOD_DESCRIPTION: drug combination growth inhibition, ovarian cancer – cell-based, oncology-focused library, rucaparib conditional, profiling panel (AID 1508598)
MEASUREMENT_PARAMETERS: patient-derived ovarian cancer cells, CellTiter-Glo viability, 144 h; at 0.000305 µM; OCI-C5x cells; with rucaparib 10 µM; 100% = cells with rucaparib alone
Activity calls are given as the source filed them.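 How the source made its calls: active means normalized viability below 100% at a tested concentration; inactive means the rest.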
Possible outcomes: active, inactive

INSERT INTO results (compound, category_label) VALUES
  ('O=c1[nH]c(=O)n([C@@H]2C[C@H](O)[C@@H](CO)O2)cc1F', 'inactive'),
  ('C=C1/C(=C/C=C2\CCC[C@@]3(C)[C@H]2CC[C@H]3[C@H](C)/C=C/[C@@H](C)C(C)C)C[C@H](O)C[C@@H]1O', 'active'),
  ('CN(C)CCOc1ccc(-c2nc(-c3ccc4c(c3)CCC4=NO)c(-c3ccncc3)[nH]2)cc1', 'inactive'),
  ('C[C@@]12CC[C@H]3c4ccc(O)cc4C[C@@H](CCCCCCCCCS(=O)CCCC(F)(F)C(F)(F)F)[C@H]3[C@@H]1CC[C@@H]2O (stereo partly drawn)', 'inactive'),
  ('CC(C)CC(CC(=O)NO)C(=O)N[C@@H](Cc1ccc2ccccc2c1)C(=O)N[C@@H](C)C(=O)NCCN (stereo partly drawn)', 'inactive'),
  ('CC(=O)O[C@]12CO[C@@H]1C[C@H](O)[C@]1(C)C(=O)[C@H](O)C3=C(C)[C@H](OC(=O)[C@H](O)[C@@H](NC(=O)OC(C)(C)C)c4ccccc4)C[C@](O)([C@H](OC(=O)c4ccccc4)C21)C3(C)C (stereo partly drawn)', 'inactive'),
  ('CC(C)(C)C(=O)Nc1ccc2c(c1)C(=O)C(=O)c1ccccc1-2', 'inactive'),
  ('O=C1[C@H](CC[C@H](O)c2ccc(F)cc2)[C@H](c2ccc(O)cc2)N1c1ccc(F)cc1', 'inactive'),
  ('c1ccc(Cn2c(-c3ccc(OC[C@H](C4CCNCC4)n4c(-c5ccccc5)nc5ccccc54)cc3)nc3ccccc32)cc1', 'inactive'),
  ('CC[C@]1(O)C[C@@H]2CN(CCc3c([nH]c4ccccc34)[C@@](C(=O)OC)(c3cc4c(cc3OC)N(C=O)[C@@H]3C45CCN4CC=C[C@](CC)([C@H]45)[C@H](OC(C)=O)[C@]3(O)C(=O)OC)C2)C1 (stereo partly drawn)', 'inactive'),
  ('CC1=C(/C=C/C(C)=C\C=C\C(C)=C/C(=O)O)C(C)(C)CCC1', 'inactive'),
  ('CN(CC(=O)N(Cc1ccc(C2CCCCC2)cc1)c1ccc(C(=O)O)cc1)S(=O)(=O)c1c(F)c(F)c(F)c(F)c1F', 'inactive'),
  ('CCOC(=O)c1cnc2ccc(-c3cncc(NS(=O)(=O)c4ccccc4)c3)cn12', 'inactive'),
  ('C[C@@]1(c2nc3c(C(N)=O)cccc3[nH]2)CCCN1', 'inactive'),
  ('CCC(C)(C)C(=O)O[C@@H]1C[C@@H](C)C=C2C=C[C@H](C)[C@@H](CC[C@@H]3C[C@@H](O)CC(=O)O3)[C@H]21', 'inactive'),
  ('COc1cc([C@H]2c3cc4c(cc3[C@@H](O[C@@H]3O[C@@H]5CO[C@@H](c6cccs6)O[C@H]5[C@H](O)[C@H]3O)[C@H]3COC(=O)[C@H]23)OCO4)cc(OC)c1O', 'inactive'),
  ('CC(=O)O[C@@]1(C(C)=O)CC[C@H]2[C@@H]3C[C@H](C)C4=CC(=O)CC[C@]4(C)[C@@H]3CC[C@@]21C', 'inactive'),
  ('COc1cccc2c1C(=O)c1c(O)c3c(c(O)c1C2=O)C[C@@](O)(C(=O)CO)C[C@H]3O[C@H]1C[C@H](N)[C@@H](O)[C@H](C)O1', 'inactive');

---

System: Hepatitis C virus NS3 helicase
METHOD_DESCRIPTION: blockers of NS3h binding to ssDNA – biochemical, fluorescence polarization, LOPAC1280 library, primary screen (AID 687035)
MEASUREMENT_PARAMETERS: Purified HCV NS3 helicase, Cy5-dT15 ssDNA binding fluorescence polarization; stronger effect = higher value; concentration not given here
Parameter inhibition: see the listing below.
METRIC_NAME: inhibition (%)

INSERT INTO assay_data (compound, recorded_value) VALUES
  ('CC(C)ON([C@@H](C(=O)NO)C(C)C)S(=O)(=O)c1ccc(-c2ccccc2)cc1', -1),
  ('C=CCN1CCc2c(cc(O)c(O)c2Br)[C@@H](c2ccccc2)C1', -2),
  ('Nc1ccc(-c2ccc3ccccc3n2)cc1', -2),
  ('CC(=O)N[C@H]1[C@H]([C@H](O)[C@H](O)CO)OC(C(=O)O)=C[C@@H]1O', 2),
  ('NO', 1),
  ('CC(C)c1cccc(C(C)C)c1N1C(=O)c2ccc(O)cc2C1=O', 0),
  ('CC(=O)O[C@H]1Cc2ccccc2N(C(N)=O)c2ccccc21', -4),
  ('N[C@@H](CCC(=O)N[C@H](CSN=O)C(=O)NCC(=O)O)C(=O)O', -3),
  ('CC[C@@H]1Cc2cc(O)ccc2C2=C1c1ccc(O)cc1C[C@H]2CC', 0),
  ('N.N.O=C(O)C1(C(=O)O)CCC1.[Pt+2]', -3),
  ('CC(=O)C(C)=O', -3),
  ('CCCCC/C=C\CC(O)/C=C/c1cccc(CC(O)CCCCO)n1 (centres undefined)', -1),
  ('COC(=O)C(N)Cc1ccc(Cl)cc1 (centres undefined)', 1),
  ('O=C1NCc2c1c1c3ccccc3[nH]c1c1[nH]c3ccccc3c21', -1);

From: PubChem BioAssay
